tested on: Saccharomyces cerevisiae BY4741 SeMeCo community; assay: z-score of subpopulation abundance vs DMSO median, subpopulation auxotrophic for HLUM; higher = larger share of this subpopulation than in DMSO controls; conditions: 10 µM; 24 h; SM minimal medium; subpopulation (auxotrophy): HLUM
Structures can show the parent of a compound that is named as a salt.
Recorded z-score of subpopulation abundance determines the group label, using low interval (below -0.3), middle interval (-0.3 to below 0.1), high interval (0.1 or more)

Where would NC12CC3CC(CC(C3)C1)C2 [Amantadine] land among the classes by reported z-score of subpopulation abundance?
low interval

Place this molecule in its band: O=C(Cn1ccnc1[N+](=O)[O-])NCc1ccccc1
middle interval

Any idea which band CCC(=O)NS(=O)(=O)c1ccc(-c2c(-c3ccccc3)noc2C)cc1 [Parecoxib] is in?
low interval

Input C[C@H](NCc1ccc(OCc2cccc(F)c2)cc1)C(N)=O [Safinamide Mesylate] ; output its category
high interval

Which band does CN(C)[C@@H](CCOc1cccc2ccccc12)c1ccccc1 [Dapoxetine HCl] fall in?
middle interval

Lab note: which band did CC(=O)C1C(=O)C=C(C)OC1=O (configuration not stated) [Sodium dehydroacetate] land in?
high interval

Looking at CC(C)C(=O)Oc1ccc(CO)cc1[C@H](CCN(C(C)C)C(C)C)c1ccccc1 [Fesoterodine Fumarate] , which class would you pick?
low interval

Note: place this molecule into its band. Item: CO[C@@H]1[C@H](OC(=O)/C=C/C=C/C=C/C=C/C(=O)O)CC[C@]2(CO2)[C@H]1[C@@]1(C)O[C@@H]1CC=C(C)C
high interval

Determine which band this molecule sits in: Clc1ccc(CCC(Cn2ccnc2)Sc2c(Cl)cccc2Cl)cc1 (configuration not stated) [Butoconazole nitrate]
high interval

Each molecule maps to one class by z-score of subpopulation abundance. Which class for Cc1cc(C)nc(NS(=O)(=O)c2ccc(N)cc2)n1 [Sulfamethazine Sodium Salt] ?
high interval

Band for CCn1cc(C(=O)O)c(=O)c2cc(F)c(N3CCNCC3)cc21 ?
low interval

// return the class label for COc1ccc(-c2nc3cc(C4=NNC(=O)CC4C)ccc3[nH]2)cc1 (configuration not stated)
high interval

Each molecule maps to one class by z-score of subpopulation abundance. Which class for C=C1c2cccc(O)c2C(O)=C2C(=O)[C@]3(O)C(O)=C(C(N)=O)C(=O)[C@@H](N(C)C)[C@@H]3[C@@H](O)[C@H]12 [Methacycline HCl] ?
middle interval

Kindly identify the class of CN(C)c1ccc(O)c2c1C[C@H]1C[C@H]3[C@H](N(C)C)C(=O)C(C(N)=O)=C(O)[C@@]3(O)C(=O)C1=C2O [Minocycline HCl] .
high interval

Class (by measured z-score of subpopulation abundance) for CC[C@H]1OC(=O)C[C@@H](O)[C@H](C)[C@@H](O[C@@H]2O[C@H](C)[C@@H](O[C@H]3C[C@@](C)(O)[C@@H](O)[C@H](C)O3)[C@H](N(C)C)[C@H]2O)[C@@H](CC=O)C[C@@H](C)C(=O)/C=C/C(C)=C/[C@@H]1CO[C@@H]1O[C@H](C)[C@@H](O)[C@@H](OC)[C@H]1OC
middle interval

# classify by z-score of subpopulation abundance band: CN(C)CCOc1ccc(/C(=C(/CCCl)c2ccccc2)c2ccccc2)cc1 [Toremifene Citrate]
middle interval

Bin this entry: COc1ccc(C(Cl)=C(c2ccc(OC)cc2)c2ccc(OC)cc2)cc1
high interval

Bin? O=C(NCCO[N+](=O)[O-])c1cccnc1
low interval

Band assignment needed for CCn1cc(C(=O)O)c(=O)c2cc(F)c(N3CCN(C)CC3)cc21 [Pefloxacin Mesylate] please.
low interval

# bin label for O=C(O)c1cc(O)c2c(c1)[C@H]([C@H]1c3cc(C(=O)O)cc(O)c3C(=O)c3c(O[C@@H]4O[C@H](CO)[C@@H](O)[C@H](O)[C@H]4O)cccc31)c1cccc(O[C@@H]3O[C@H](CO)[C@@H](O)[C@H](O)[C@H]3O)c1C2=O [Sennoside A]
low interval

Input CS(=O)(=O)c1ccc([C@@H](O)[C@@H](CF)NC(=O)C(Cl)Cl)cc1 ; output its category
middle interval

Consider CCN1CCC[C@H]1CNC(=O)c1cc(S(N)(=O)=O)ccc1OC [Levosulpiride] . To which z-score of subpopulation abundance class does it belong?
low interval

Hey, which category is Cc1onc(-c2ccccc2)c1-c1ccc(S(N)(=O)=O)cc1 in, do you know?
low interval

Dear colleague, I would appreciate it if you could identify the bin for OCc1ccccc1O[C@@H]1O[C@H](CO)[C@@H](O)[C@H](O)[C@H]1O and reply at your convenience.
middle interval

Which z-score of subpopulation abundance band matches O=C(O)c1cc(=O)c2c(OCC(O)COc3cccc4oc(C(=O)O)cc(=O)c34)cccc2o1 [Disodium Cromoglycate] ?
low interval

Record COCCCC/C(=N\OCCN)c1ccc(C(F)(F)F)cc1 [Fluvoxamine maleate] — which class?
low interval

Band assignment needed for CCN(Cc1ccncc1)C(=O)C(CO)c1ccccc1 (configuration not stated) [Tropicamide] please.
middle interval

Just checking, what class would you give Cn1c(=O)c2[nH]cnc2n(C)c1=O here?
middle interval

Sort into band: COc1nc2ccc(Br)cc2cc1[C@@H](c1ccccc1)[C@@](O)(CCN(C)C)c1cccc2ccccc12 [Bedaquiline fumarate]
high interval

Data provenance: the supplement of paper PMC8975748
